Assay: amyloid nucleation score (Sup35N fusion, yeast selection) (log enrichment); library NNK3; higher = more nucleation; inactive = no reads after selection;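 further: zero at mode of non-aggregating sequences after 7 days selection at 30°C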
observable: amyloid nucleation score

A selection of reference data follows.
YILMDFSYADLSFVLEIFFA    0.09
FFVWKHLLMRFRYALACTLM    inactive
IIPYHEFIVGALVSHRWCQD    inactive
IPTSQAEFCCFSGAKHFQIV    inactive
ELSANTSFTNSHMTMTTKLF    inactive
QHSFVNSIFSSLGTLRKNLL    inactive

Please report the recorded amyloid nucleation score for "LFSWRKYGVNHQLLGVEIQS" .
inactive

Field entry: "TVGGEIVNSLGVWCYRVCKR"
0.723

"YLLVHLAKCIFNWHLSSIEM" ?
-0.109

"EGFFYCCHFFRLYYNVVVLL" ?
2.02

Now give it for "LAASLSGIYCPSLAWRGLKE" too.
inactive

Further, for "LGSWLWR" ?
inactive

Would you kindly repeat that for "FTYVLTLMSFNGGPRGRYGW" ?
2.66

Now the substance "NMLYTKRNTVSSALVIYCVN"
inactive

Now consider "VEGRMLSYLHVIYMYSGWRK" .
inactive
